Listing of recorded Permeation (%) by entry.
Test system: TR146 cells
Assay: In vitro permeation, buccal model
Type: in vitro ADME, human
Details: from CS-loaded OFs, 15 min
Procedure: The in vitro permeability of the bioactive compounds present in OFs (n = 9) was determined using a co-culture model composed of TR146 ([31]). The extract and the CS-loaded OFs were added to the apical side of the model as a stock solution. […] The Transepithelial Electrical Resistance (TEER) of the model was evaluated before, during, and at the end of the permeability assay using an EVOM Epithelial Volthometer equipped with a chopstick electrode (World Precision Instruments, Sarasota, FL, USA). […]
Marks after values point to notes of the source that are not given here.
measuredEndpoint: Permeation (%)

compound="O=C(O)C[C@H](C(=O)O)[C@@H](O)C(=O)O [Isocitric acid]" observed="0.15 ± 0.001^a %"
compound="O=C(O)c1ccc(O)c(O)c1 [Protocatechuic acid]" observed="89.42 ± 3.08^b %"
compound="O=C1CC[C@@H](C(=O)O)N1 [Pyroglutamic acid]" observed="17.03 ± 0.23^a %"
compound="COc1cc(-c2oc3cc(O)cc(O)c3c(=O)c2O)ccc1O [Isorhamnetin]" observed="105.62 ± 3.71^a %"
compound="O=C(O)CCC(=O)O [Succinic acid]" observed="44.20 ± 2.19^a %"
compound="COc1cc(CC(=O)O)ccc1O [Homovanillic acid]" observed="106.01 ± 1.46^a %"

* * *

tested on: TR146 cells; assay: In vitro permeation, buccal model; type: in vitro ADME, human; conditions: CS extract
Marks after values point to notes of the source that are not given here.
Overview of reported Quantification of permeated compounds across a group of molecules:
measuredEndpoint: Quantification of permeated compounds

molecule=O[C@H]1[C@H](O)[C@@H](O)[C@H](O)[C@@H](O)[C@H]1O systemtested="TR146 cells" observed="0.54 ± 0.01^a mg/ml"
molecule=COc1cc(-c2oc3cc(O)cc(O)c3c(=O)c2O)ccc1O systemtested="TR146 cells" observed="0.38 ± 0.04^a mg/ml"
molecule="O=c1c(O[C@@H]2O[C@H](CO)[C@H](O)[C@H](O)[C@H]2O)c(-c2ccc(O)c(O)c2)oc2cc(O)cc(O)c12 [Quercetin 3-O-galactoside]" systemtested="TR146 cells" observed="0.36 ± 0.01^a mg/ml"
molecule="COC(=O)c1cc(O)c(O)c(O)c1 [Methyl gallate]" systemtested="TR146 cells" observed="0.37 ± 0.01^a mg/ml"
molecule=O=C1CC[C@@H](C(=O)O)N1 systemtested="TR146 cells" observed="41.32 ± 2.63^b mg/ml"
molecule="O=C(O)c1cccc(O)c1 [3-Hydroxybenzoic acid]" systemtested="TR146 cells" observed="1.52 ± 0.02^a mg/ml"
molecule=COc1cc(C=O)ccc1O systemtested="TR146 cells" observed="0.70 ± 0.02^a mg/ml"

* * *

tested on: TR146 cells; experiment: In vitro permeation, buccal model; assay type: in vitro ADME, human; settings: from CS extract, 120 min
Marks after values point to notes of the source that are not given here.
Entries and their measured Permeation (%) follow.
measuredEndpoint: Permeation (%)

compound=O[C@H]1[C@H](O)[C@@H](O)[C@H](O)[C@@H](O)[C@H]1O measuredendpoint="Permeation (%)" observed="41.34 ± 1.01^a^,^b %"
compound="Oc1cc(O)c2c(c1)O[C@H](c1ccc(O)c(O)c1)[C@H](O)C2 [Epicatechin]" measuredendpoint="Permeation (%)" observed="97.73 ± 6.01^a %"
compound=O=C(O)c1ccc(O)c(O)c1 measuredendpoint="Permeation (%)" observed="25.84 ± 1.03^a %"
compound=COc1cc(C=O)ccc1O measuredendpoint="Permeation (%)" observed="27.71 ± 0.72^a %"
compound=COc1cc(CC(=O)O)ccc1O measuredendpoint="Permeation (%)" observed="90.93 ± 2.74^b %"
compound="O=C(O)c1cccc(O)c1 [3-Hydroxybenzoic acid]" measuredendpoint="Permeation (%)" observed="29.12 ± 0.19^b %"
compound=O=C(O)C[C@H](C(=O)O)[C@@H](O)C(=O)O measuredendpoint="Permeation (%)" observed="0.33 ± 0.02^a^,^b %"
compound=O=C1CC[C@@H](C(=O)O)N1 measuredendpoint="Permeation (%)" observed="23.68 ± 1.84^b %"
compound=COc1cc(-c2oc3cc(O)cc(O)c3c(=O)c2O)ccc1O measuredendpoint="Permeation (%)" observed="98.36 ± 1.07^a %"
compound=O=C(O)CCC(=O)O measuredendpoint="Permeation (%)" observed="20.71 ± 1.67^b %"

Just for reference, paper PMC12488667 is where these values come from.
